# Assay text: Drug concentration in Sprague-Dawley rat plasma at 1 mg/kg, po measured after 8 hr by LC-MS/MS analysis
# Assay type: ADME, organism-based
Measurement label: concentration at 8 h (ng/mL)
Output spec: scalar in ng/mL, unitless text.

Requested field: concentration at 8 h. Item: `O=S1(=O)NCc2cccc(-c3ccc(-c4ccccc4F)cc3)c2O1`
25.5

----------
# Assay text: Half life in Sprague-Dawley rat at 0.3 mg/kg, iv by LC-MS/MS analysis
# Type: ADME, organism-based
# Experimental context: in vivo
Measurement label: half-life

Requested field: half-life. Item: `O=S1(=O)NCc2cccc(-c3ccc(Oc4ccccc4)cc3)c2O1`
1.27 h

----------
Examples of molecules with documented Activity follow.
# System name: Glutamate receptor ionotropic, AMPA (Rattus norvegicus) (UniProt P19491+P19492+P19493+P19490)
# Assay text: Agonist activity at AMPA receptor in rat Primary neuron cells assessed as increase in fluorescence level at 1 uM incubated for 1 hr by calcium 2+ influx assay relative to s-AMPA coupled TAK-137
# Assay type: cell-based
Output spec: scalar in %, unitless text.

Sample records with Activity:
COc1cccc(-c2ccc(-c3cccc4c3OS(=O)(=O)NC4C)cc2)c1 (configuration not stated) : 4.2
COc1ccc(-c2cccc3c2OS(=O)(=O)NC3)cc1 : 1
COc1ccccc1-c1ccc(-c2cccc3c2OS(=O)(=O)NC3C)cc1 (configuration not stated) : 8.5
CC1NS(=O)(=O)Oc2c(-c3ccc(-c4cccc(F)c4)cc3)cccc21 (configuration not stated) : 8.6
COc1c(C)cc(-c2cccc3c2OS(=O)(=O)NC3)cc1C : 3.1

Item under review: CC1NS(=O)(=O)Oc2c(-c3ccc(-c4ccccc4F)cc3)cccc21 (configuration not stated) . Reported Activity?
10.5

Moving on to the next molecule: `O=S1(=O)NCc2ccc(-c3ccc(Oc4ccccc4)cc3)cc2O1`
0.7

Now the molecule `O=S1(=O)NCc2cccc(-c3ccccc3Oc3ccccc3)c2O1`
-0.5

Subsequent entry: COc1ccc(-c2ccc(-c3cccc4c3OS(=O)(=O)NC4C)cc2)cc1 (configuration not stated)
2.1

And the next one, `O=S1(=O)NCc2c(cccc2-c2ccc(Oc3ccccc3)cc2)O1` ?
0.8

Param item: `O=S1(=O)NCc2cccc(-c3ccc(-c4ccccc4)cc3)c2O1`
6.2

Again, but for `O=S1(=O)NCc2cccc(-c3ccc(-c4ccccc4F)cc3)c2O1`
-2.6

----------
# Assay text: Oral bioavailability in Sprague-Dawley rat at 3 mg/kg by LC-MS/MS analysis
# Type: ADME, organism-based
# Experimental context: in vivo
Measurement label: bioavailability (%)
Kindly answer with a numeric value in %, unit omitted.

Given the entry `O=S1(=O)NCc2cccc(-c3ccc(Oc4ccccc4)cc3)c2O1` , report its measured bioavailability.
19.8

----------
# System name: Glutamate receptor ionotropic, AMPA (Rattus norvegicus, UniProt P19490+P19491+P19492+P19493)
# Assay text: Agonist activity at AMPA receptor in rat Primary neuron cells
Threshold check on EC50: strictly below 0.6 µM is yes (1); on or above 0.6 µM is no (0).

See these solved cases before continuing.
COc1ccc(-c2cccc3c2OS(=O)(=O)NC3)cc1 : yes (1)
O=S1(=O)NCc2cccc(-c3ccc(-c4ccccc4F)cc3)c2O1 : yes (1)
COc1ccc(-c2ccc(-c3cccc4c3OS(=O)(=O)NC4)cc2)cc1 : no (0)
COc1ccccc1-c1ccc(-c2cccc3c2OS(=O)(=O)NC3)cc1 : yes (1)

Here's the next entry for you.
Just wondering, is EC50 of `O=S1(=O)NCc2cccc(-c3ccc(Oc4ccccc4)cc3)c2O1` below 0.6 µM?
no (0)

----------
# Assay text: Drug concentration in Sprague-Dawley rat brain at 1 mg/kg, po measured after 8 hrs by LC-MS/MS analysis
# Assay type: ADME, organism-based
# Experimental context: read-out: Ct
Measurement label: concentration at 8 h (ng/g)
Quick note: give the figure in ng/g, leave out the unit.

Report concentration at 8 h for `O=S1(=O)NCc2cccc(-c3ccc(-c4ccccc4F)cc3)c2O1` please.
37.2

----------
# Assay text: Drug concentration in Sprague-Dawley rat plasma at 1 mg/kg, po measured after 24 hr by LC-MS/MS analysis
# Assay type: ADME, organism-based
Measurement label: concentration at 24 h (ng/mL)
Note: unit ng/mL is implicit; provide only the numeric part.

Reported concentration at 24 h, compound `O=S1(=O)NCc2cccc(-c3ccc(-c4ccccc4F)cc3)c2O1` : ____
3.96

----------
# Assay text: MRT (0 to t) in Sprague-Dawley rat at 0.3 mg/kg, iv by LC-MS/MS analysis
# Type: ADME, organism-based
# Experimental context: in vivo
Measurement label: MRT last (min)
# value in min; strip the unit string

Any idea what MRT last was measured for `O=S1(=O)NCc2cccc(-c3ccc(Oc4ccccc4)cc3)c2O1` ?
42

----------
# Assay text: Drug concentration in Sprague-Dawley rat brain at 1 mg/kg, po measured after 2 hrs by LC-MS/MS analysis
# Assay type: ADME, organism-based
# Experimental context: read-out: Ct
Measurement label: concentration at 2 h
Please give the number followed by its unit.

Consider the molecule shown here: `O=S1(=O)NCc2cccc(-c3ccc(-c4ccccc4F)cc3)c2O1` What is its recorded concentration at 2 h?
133 ng/g

----------
# Assay text: Drug concentration in Sprague-Dawley rat plasma at 1 mg/kg, po measured after 2 hr by LC-MS/MS analysis
# Type: ADME, organism-based
Measurement label: concentration at 2 h (ng/mL)
// return numeric value only (unit: ng/mL, not printed)

Field request: concentration at 2 h | item: `O=S1(=O)NCc2cccc(-c3ccc(-c4ccccc4F)cc3)c2O1`
62.3

----------
# Assay text: Tmax in Sprague-Dawley rat at 3 mg/kg, po by LC-MS/MS analysis
# Format: ADME, organism-based
# Experimental context: in vivo
Measurement label: Tmax (min)
Unit min implied. Number only.

Suppose we examine the molecule `O=S1(=O)NCc2cccc(-c3ccc(Oc4ccccc4)cc3)c2O1` ; what Tmax value has been reported?
30

----------
# Assay text: Drug concentration in Sprague-Dawley rat plasma at 1 mg/kg, po measured after 0.50 hrs by LC-MS/MS analysis
# Format: ADME, organism-based
Measurement label: concentration at 0.5 h

Value lookup for concentration at 0.5 h; key = `O=S1(=O)NCc2cccc(-c3ccc(-c4ccccc4F)cc3)c2O1`
142 ng/mL

----------
# Assay text: Ratio of drug concentration in brain to plasma in Sprague-Dawley rat at 1 mg/kg, po measured after 0.50 hrs by LC-MS/MS analysis
# Type: ADME, organism-based
# Experimental context: read-out: BPR
Measurement label: Kp at 0.5 h
Format: numeric value only, no unit, no commentary.

Name the recorded Kp at 0.5 h for `O=S1(=O)NCc2cccc(-c3ccc(-c4ccccc4F)cc3)c2O1` .
1.08

----------
# Assay text: Half life in Sprague-Dawley rat at 0.1 mg/kg, iv by LC-MS/MS analysis
# Type: ADME, organism-based
# Experimental context: in vivo
Measurement label: half-life

Fill in the blank: the reported half-life of `O=S1(=O)NCc2cccc(-c3ccc(-c4ccccc4F)cc3)c2O1` is ____.
2.71 h

----------
# Assay text: Drug concentration in Sprague-Dawley rat brain at 1 mg/kg, po measured after 0.50 hr by LC-MS/MS analysis
# Assay type: ADME, organism-based
# Experimental context: read-out: Ct
Measurement label: concentration at 0.5 h (ng/g)
Your answer is read as ng/g, so omit the unit and give the number.

Bench note: what concentration at 0.5 h did `O=S1(=O)NCc2cccc(-c3ccc(-c4ccccc4F)cc3)c2O1` show?
150

----------
# Assay text: Cmax in Sprague-Dawley rat at 1 mg/kg, po by LC-MS/MS analysis
# Type: ADME, organism-based
# Set-up: dose 1 mg/kg, route po
# Experimental context: in vivo
Measurement label: Cmax (ng/mL)
The response must be a number in ng/mL with no trailing unit.

Given the entry `O=S1(=O)NCc2cccc(-c3ccc(-c4ccccc4F)cc3)c2O1` , report its measured Cmax.
142

----------
# System name: Glutamate receptor ionotropic, AMPA (Rattus norvegicus) (UniProt P19491+P19492+P19493+P19490)
# Assay text: Agonist activity at AMPA receptor in rat Primary neuron cells relative to control
# Format: cell-based
# Experimental context: filed as agonist
Measurement label: Emax
Report as: number unit

Worked examples follow.
COc1ccc(-c2cccc3c2OS(=O)(=O)NC3)cc1 : 99%
COc1ccccc1-c1ccc(-c2cccc3c2OS(=O)(=O)NC3)cc1 : 125%
O=S1(=O)NCc2cccc(-c3ccc(-c4ccccc4F)cc3)c2O1 : 137%
COc1ccc(-c2ccc(-c3cccc4c3OS(=O)(=O)NC4)cc2)cc1 : 79%

Read the next record carefully.
GET /values?readout=Emax&item= `O=S1(=O)NCc2cccc(-c3ccc(Oc4ccccc4)cc3)c2O1`
169%

----------
# Assay text: AUC (0 to t) in Sprague-Dawley rat at 1 mg/kg, po by LC-MS/MS analysis
# Type: ADME, organism-based
# Design: dose 1 mg/kg, route po
# Experimental context: in vivo
Measurement label: AUC(0-t) (ng·h/mL)
Write the number in ng·h/mL without appending the unit.

Bench note: what AUC(0-t) did `O=S1(=O)NCc2cccc(-c3ccc(-c4ccccc4F)cc3)c2O1` show?
805
